Hello, the source for this data is ChEMBL document CHEMBL3603830, in case you need it.

target of assay: P2Y purinoceptor 6 (Homo sapiens)
Sequence (Q15077 whole entry): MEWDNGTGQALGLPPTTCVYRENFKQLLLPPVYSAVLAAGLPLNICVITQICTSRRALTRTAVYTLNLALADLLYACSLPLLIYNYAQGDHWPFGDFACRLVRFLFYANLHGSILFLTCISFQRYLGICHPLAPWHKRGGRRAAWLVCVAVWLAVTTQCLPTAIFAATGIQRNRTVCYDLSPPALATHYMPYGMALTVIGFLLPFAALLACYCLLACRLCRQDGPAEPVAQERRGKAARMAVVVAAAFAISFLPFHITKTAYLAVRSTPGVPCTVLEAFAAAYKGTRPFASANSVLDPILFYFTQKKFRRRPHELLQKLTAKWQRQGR
protocol text: Antagonist activity at human recombinant P2Y6 receptor expressed in human 1321N1 cells assessed as inhibition of UDP-induced increase in intracellular calcium level incubated for 2 mins prior to UDP induction by fluo-4 dye-based spectrofluorometric analysis
outcome measure: IC50

[
  {
    "mol smiles": "O=c1ccn([C@@H]2O[C@H](COP(=O)(O)OS(=O)(=O)O)[C@@H](O)[C@H]2O)c(=O)[nH]1",
    "outcome measure": "IC50",
    "result": "112 µM"
  }
]

----------
target of assay: P2Y purinoceptor 6 (Homo sapiens)
protocol text: Agonist activity at human recombinant P2Y6 receptor expressed in human 1321N1 cells assessed as increase in intracellular calcium level by fluo-4 dye-based spectrofluorometric analysis
Assay type: functional, cell-based
Calls of active or inactive are those of the source. No cut-off for these calls is given here.

[
  {
    "mol smiles": "COc1cn([C@@H]2O[C@H](COP(=O)(O)C(Cl)(Cl)P(=O)(O)O)[C@@H](O)[C@H]2O)c(=O)[nH]c1=O",
    "Activity": "Active"
  },
  {
    "mol smiles": "COc1cn([C@@H]2O[C@H](COP(=O)(O)C(F)(F)P(=O)(O)O)[C@@H](O)[C@H]2O)c(=O)[nH]c1=O",
    "Activity": "Active"
  },
  {
    "mol smiles": "O=c1[nH]c(=O)n([C@@H]2O[C@H](COP(=O)(O)CP(=O)(O)O)[C@@H](O)[C@H]2O)cc1F",
    "Activity": "Active"
  }
]
